- ASSAYED SYSTEM: Follistatin-related protein 3 (Homo sapiens) (UniProt O95633)
- Sequence (O95633 whole entry, looked up): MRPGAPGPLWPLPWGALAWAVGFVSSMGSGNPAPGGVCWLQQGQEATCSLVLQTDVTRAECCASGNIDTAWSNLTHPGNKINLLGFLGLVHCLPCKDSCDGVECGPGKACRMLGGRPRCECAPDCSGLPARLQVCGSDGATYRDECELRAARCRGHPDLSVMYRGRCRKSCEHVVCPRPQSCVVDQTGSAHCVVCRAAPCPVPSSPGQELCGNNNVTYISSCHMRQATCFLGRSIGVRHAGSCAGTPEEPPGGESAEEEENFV
- ASSAY DETAILS: FSTL3 binders on small-molecule microarrays, primary screen, biochemical, small-molecule microarray, 635 nm fluorescence (AID 1105);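 further: score merges emission near 667 nm and signal to noise per printed spot across three slides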
- SETTINGS: FSTL3 binding, higher = more signal
OBSERVABLE: composite z-score
Answer field: number only, no words.

Record [N-]=[N+]=Nc1ccccc1[C@H]1OC(c2ccc(OCCCO)cc2)=N[C@@]1(Cc1ccccc1)C(=O)N1CCCCC1 ; system Follistatin-related protein 3 (Homo sapiens) (UniProt O95633); composite z-score = 1.11

Others:
Record CN1C(=O)C2C=CC(C(O)C#Cc3ccccc3)N(Nc3ccccc3)C2C1=O (configuration not stated) ; system Follistatin-related protein 3 (Homo sapiens) (UniProt O95633); composite z-score = 1.42

Record C=C(/C(=C/C[C@H](OC(C)=O)c1cccc(OCCO)c1)c1cnc2ccccc2c1)C(C)C ; system Follistatin-related protein 3 (Homo sapiens) (UniProt O95633); composite z-score = 1.49

Record COCCOC(=O)N1C(=O)[C@@]2(c3cc(C#Cc4ccc(OC)cc4)ccc31)[C@H](C(=O)Nc1nc3ccccc3s1)[C@H]1C(=O)O[C@H](c3ccccc3)[C@H](c3ccccc3)N1[C@@H]2c1ccc(O)cc1 ; system Follistatin-related protein 3 (Homo sapiens) (UniProt O95633); composite z-score = 1.24

Record CCCCCCc1nc(-c2cc(C)c(OC)c(C)c2)c(C)c2c1[Si](C(C)C)(C(C)C)OC2 ; system Follistatin-related protein 3 (Homo sapiens) (UniProt O95633); composite z-score = -0.0761

Record COc1ccc([Si](C)(C)[C@H]2[C@H](CC(=O)N(CCO)Cc3ccccc3)O[C@@]3(C(=O)N(Cc4cccc(N5CCOC5=O)c4)c4ccccc43)[C@@H]2C)cc1 ; system Follistatin-related protein 3 (Homo sapiens) (UniProt O95633); composite z-score = 0.324

Record COC(=O)[C@@]1(Cc2ccccc2)[C@H]2c3cc(C(=O)N(C)C)n(CCc4ccc(O)c(OC)c4)c3C[C@H]2CN1C(=O)c1ccccc1 ; system Follistatin-related protein 3 (Homo sapiens) (UniProt O95633); composite z-score = 0.37

----------
- ASSAY DETAILS: adipocyte viability effects, profiling panel, cell-based, 3T3-L1 adipocytes, calcein-AM fluorescence, 48 h, basal (AID 1163)
- SETTINGS: 3T3-L1 adipocytes viability, higher = more signal
Recorded z-score determines the label; the label ranges are low = under -0.2, intermediate = from -0.2 up to 0.6, high = 0.6 and over

Consider the worked cases shown below.
Which band does O=C1O[C@H](c2ccccc2)[C@H](c2ccccc2)N2[C@H]1[C@@H](C(=O)Nc1nc3ccccc3s1)[C@]1(C(=O)Nc3ccccc31)[C@H]2c1ccc(OCCO)cc1 fall in?
intermediate

Which band does COC(=O)C(CC#Cc1ccc2c(c1)[C@]1(C(=O)N2)[C@H](c2ccccc2OCCO)N2[C@H](c3ccccc3)[C@H](c3ccccc3)OC(=O)[C@H]2[C@@H]1C(=O)NC[C@H](O)c1ccccc1)C(=O)OC fall in?
low

Which band does COc1cc2c(cc1O)C(C)N(Cc1ccc([N+](=O)[O-])o1)CC2 (stereo not given) fall in?
high

Others:
Which band does COc1ccc(CN(C2=CC[C@@]3(C(N)=O)C(=O)C(Cl)=C(Cl)C(=O)[C@@]3(C#N)C2)S(=O)(=O)c2ccc(Br)cc2)cc1 fall in?
intermediate

Which band does COC(=O)c1c(CC[C@@H](CO)NC(=O)N2CCC[C@H]2Cn2cc(Cc3ccccc3)nn2)oc(C(C)=O)c1C(=O)OC fall in?
low

Which band does COc1ccc([Si](C)(C)[C@H]2[C@H](CCO)O[C@@]3(C(=O)N(Cc4cccc(N5C(=O)COc6ccccc65)c4)c4ccccc43)[C@@H]2C)cc1 fall in?
intermediate

Which band does O=C(NCC(F)(F)F)[C@@H]1c2ccccc2C(=O)N(Cc2ccc(OC(F)(F)F)cc2)[C@H]1c1ccc(CO)cc1 fall in?
low

Which band does CCOC(=O)C[C@H]1[C@H](OC(=O)c2ccccc2-c2ccccc2)[C@@H](NC(=O)C2CCCCC2)c2cc(OCCCO)ccc2N1C(=O)Cc1ccc(OC)cc1 fall in?
high

Which band does CCCNC(=O)[C@@H]1c2ccccc2C(=O)N(C(C)C)[C@H]1c1ccc(CO)cc1 fall in?
intermediate

----------
- System: Chordin-like protein 2 (CHRDL2)
- ASSAY DETAILS: CHRDL2 small-molecule binders, primary screen, biochemical, small-molecule microarray, 635 nm fluorescence (AID 1126);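 further: printed compound slides probed with Chrdl2 protein at 4 µg/mL for 1 h at 4 C; score merges 667 nm emission intensity with signal to noise over three replicate slides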
- SETTINGS: small-molecule microarray binding, fluorescence 635 nm; higher = more signal
OBSERVABLE: composite z-score

Lab note: CCOC(=O)[C@H]1[C@@H]2C(=O)N3CCC[C@H]3[C@H](O[Si](C(C)C)(C(C)C)C(C)C)[C@H]2C=C2CCN(S(=O)(=O)c3ccc(C)cc3)C[C@H]21 gave composite z-score of 0.484

Lab note: CCOC(=O)C1CCCCN1 (centres undefined) gave composite z-score of 0.47

Lab note: CN(C)CCCNC(=O)[C@@]1(C)c2ccccc2C(=O)N(Cc2ccccc2)[C@H]1c1ccc(CO)cc1 gave composite z-score of -0.19

Lab note: COC(=O)[C@@]1(Cc2ccccc2N=[N+]=[N-])N=C(c2ccc(OCCCO)cc2)O[C@H]1c1ccccc1N=[N+]=[N-] gave composite z-score of 0.456

----------
- Test system: XIP peptide (Xip251-270) binding
- ASSAY DETAILS: small-molecule binders of XIP peptide, primary screen, biochemical, small-molecule microarray, fluorescence 635/667 nm, 0.1 µg/mL protein (AID 1182)
- SETTINGS: fluorescent protein binding, 635 nm, higher = more signal, called active from +8 up or from −8 down
// values below are reported composite z-score
Answer field: number only, no words.

Previously resolved entries follow.
Lab note: CN(C)C(=O)C1N=C(c2ccc(OCCCO)cc2)N(c2ccccc2)O1 (centres undefined) gave composite z-score of 0.94

Lab note: O=C1OCC=C[C@H]2OC34C=CCN(Cc5ccccc5)C(=O)[C@H]3N(CCCCCCO)C(=O)[C@@H]4[C@@H]12 (some centres undefined) gave composite z-score of 1.49

Lab note: C[N+](C)(C)CCCC[C@@H]1NC(=O)[C@H]2C[C@@H](C(=O)NCCCCCCN)[C@@H](c3ccc(O)cc3)N2C1=O gave composite z-score of -0.465

Lab note: [N-]=[N+]=NCc1ccccc1C[C@@]1(C(=O)N2CCOCC2)N=C(c2ccc(OCCCO)cc2)O[C@@H]1c1ccccc1 gave composite z-score of 0.761

Lab note: C=CCC(OC(C)=O)[C@@H]1[C@@H](N(Cc2cccc3ccccc23)C(=O)c2cccc3ccccc23)c2cc(OCCCO)ccc2N1C(=O)c1ccc(-c2ccccc2)cc1 (some centres undefined) gave composite z-score of 0.71

Lab note: CCCC[C@@H](O)C1=C(COc2ccccc2)C[C@H]2C(=O)N(C)C(=O)[C@H]2[C@H]1CO gave composite z-score of -0.35

Lab note: O=C1C2C=CC(C(O)c3ccc(Br)cc3)N(Nc3ccccc3F)C2C(=O)N1c1ccccc1 (centres undefined) gave composite z-score of 0.197

Lab note: NC(=O)NCC#Cc1ccc2c(c1)[C@]1(C(=O)N2)[C@H](C(=O)O)[C@H]2C(=O)O[C@H](c3ccccc3)[C@H](c3ccccc3)N2[C@@H]1c1ccc(OCCO)cc1 gave composite z-score of -0.316

Others:
Lab note: [N-]=[N+]=NCc1ccccc1[C@H]1OC(c2ccc(OCCCO)cc2)=N[C@@]1(CCS(=O)(=O)c1ccccc1)C(=O)N1CCCCC1 gave composite z-score of 0.447

Lab note: COC(=O)[C@@]1(Cc2ccccc2)[C@H]2c3cc(C(=O)N(C)C)n(CCN4CNCC4=O)c3C[C@H]2CN1C(=O)c1ccccc1 gave composite z-score of 0.858

Lab note: COCCOC(=O)N1C(=O)[C@@]2(c3cc(C#Cc4ccc(OC)cc4)ccc31)[C@H](c1ccccc1OCCO)N1[C@H](c3ccccc3)[C@H](c3ccccc3)OC(=O)[C@H]1[C@@H]2C(=O)N1CCCCCCC1 gave composite z-score of 1.93

Lab note: [N-]=[N+]=Nc1ccccc1C[C@]1(C(=O)N2CCOCC2)N=C(c2ccc(OCCCO)cc2)O[C@H]1c1ccccc1 gave composite z-score of 0.511

Lab note: Cc1ccc(S[C@]2(C(=O)NCCCN(C)C)CC(=O)N(C3CCCCC3)[C@@H]2c2ccc(CO)cc2)cc1 gave composite z-score of 0.332

Lab note: COCCOC(=O)N1C(=O)[C@@]2(c3cc(C#Cc4ccc(OC)cc4)ccc31)[C@H](C(=O)Nc1nc3ccccc3s1)[C@H]1C(=O)O[C@H](c3ccccc3)[C@H](c3ccccc3)N1[C@@H]2c1ccc(OCCO)cc1 gave composite z-score of 0.127

----------
- ASSAY DETAILS: basal RPMI8226 mitochondrial membrane potential changes, profiling panel, cell-based, JC-1 fluorescence, 24 h, 100 nL compound (AID 1169)
- SETTINGS: RPMI8226 myeloma, JC-1 mitochondrial potential fluorescence, higher = more signal
// values below are reported z-score
Answer field: number only, no words.

Previously resolved entries follow.
Lab note: COc1cc(OC)c(C(O)C2C=CC3C(=O)N(c4ccccc4)C(=O)C3N2Nc2ccccc2)cc1Br (stereo not drawn) gave z-score of 0.292

Lab note: CC(CO)N1C(=O)[C@@H]2[C@H]3C(=O)OCC=C[C@H]3OC23C=CCN(C(C)(C)C)C(=O)[C@@H]13 (stereo partly drawn) gave z-score of 0.127

Lab note: COC(=O)c1c(CC[C@@H](CO)NC(=O)N2CCC[C@H]2Cn2cc(Cc3ccccc3)nn2)oc(C(C)=O)c1C(=O)OC gave z-score of 0.127

Lab note: C[N+](C)(C)CCCCCCNC(=O)[C@H]1C[C@H]2C(=O)NCC(=O)N2[C@H]1c1ccc(O)cc1 gave z-score of 0.0729

Others:
Lab note: COc1ccc(CN(C2=CC[C@@]3(C(N)=O)C(=O)C(Cl)=C(Cl)C(=O)[C@@]3(C#N)C2)S(=O)(=O)c2ccc(Br)cc2)cc1 gave z-score of -0.885

Lab note: CCOC(=O)C[C@H]1[C@H](OC(=O)Cc2ccc3c(c2)OCO3)[C@@H](NC(=O)CC(C)C)c2cc(OCCCO)ccc2N1C(=O)Cc1ccc(OC)cc1 gave z-score of 0.139

Lab note: O=C1OCC=C[C@H]2OC34C=CCN(Cc5ccccc5)C(=O)[C@H]3N(CCCCCCO)C(=O)[C@@H]4[C@@H]12 (stereo partly drawn) gave z-score of -0.822

Lab note: C=CCN1C(=O)[C@@]2(O[C@@H](CCn3cc([C@H](O)c4ccccc4)nn3)[C@H]([Si](C)(C)c3ccc(OC)cc3)[C@H]2C)c2cc(N3CCC3=O)ccc21 gave z-score of -1.01

Lab note: COC(=O)[C@@]1(Cc2ccc(OC)cc2)[C@H]2c3cc(C(=O)N(C)C)n(Cc4ccc(Cl)c(C(F)(F)F)c4)c3C[C@H]2CN1C(=O)c1ccccc1 gave z-score of -0.652

Lab note: COc1ccccc1CN1C(=O)c2ccccc2[C@@]2(Cc3ccccc3N(CC(F)(F)F)C2=O)[C@@H]1c1ccc(CO)cc1 gave z-score of -0.0759

Lab note: O=C1C2C=CC(C(O)c3ccc(F)cc3)N(n3cnnc3)C2C(=O)N1Cc1ccccc1 (stereo not drawn) gave z-score of -0.0973

Lab note: CC(C)C(CO)N1C(=O)[C@@H]2C3C(=O)OCCC/C=C\[C@H]3OC23C=CCN(C(C)(C)C)C(=O)[C@@H]13 (stereo partly drawn) gave z-score of 0.0508

Lab note: O=C(NCC(F)(F)F)[C@@H]1c2ccccc2C(=O)N(Cc2ccc(OC(F)(F)F)cc2)[C@H]1c1ccc(CO)cc1 gave z-score of 0.941

Lab note: NCCCCCNC(=O)[C@@H]1C[C@@H]2C(=O)NCC(=O)N2[C@@H]1c1cccc(OCCO)c1 gave z-score of 0.00435

Lab note: COc1ccc([Si](C)(C)[C@@H]2[C@@H](CC(=O)N3Cc4ccccc4C[C@H]3CO)O[C@]3(C(=O)N(C)c4ccccc43)[C@H]2C)cc1 gave z-score of -1.14

Lab note: CC(C)Cc1ccc(CN2CC[C@@H](NC(=O)Nc3ccccc3)C2)cc1 gave z-score of -1.11

Lab note: COC(=O)[C@@]1(Cc2ccccc2)[C@@H]2C(=CC(=O)[C@H]2CC(=O)C(=O)N(C)C)CN1C(=O)c1ccccc1 gave z-score of -0.791
